Biological target: Caspase-8 (Homo sapiens) (UniProt Q14790)
Sequence (Q14790 whole entry, looked up): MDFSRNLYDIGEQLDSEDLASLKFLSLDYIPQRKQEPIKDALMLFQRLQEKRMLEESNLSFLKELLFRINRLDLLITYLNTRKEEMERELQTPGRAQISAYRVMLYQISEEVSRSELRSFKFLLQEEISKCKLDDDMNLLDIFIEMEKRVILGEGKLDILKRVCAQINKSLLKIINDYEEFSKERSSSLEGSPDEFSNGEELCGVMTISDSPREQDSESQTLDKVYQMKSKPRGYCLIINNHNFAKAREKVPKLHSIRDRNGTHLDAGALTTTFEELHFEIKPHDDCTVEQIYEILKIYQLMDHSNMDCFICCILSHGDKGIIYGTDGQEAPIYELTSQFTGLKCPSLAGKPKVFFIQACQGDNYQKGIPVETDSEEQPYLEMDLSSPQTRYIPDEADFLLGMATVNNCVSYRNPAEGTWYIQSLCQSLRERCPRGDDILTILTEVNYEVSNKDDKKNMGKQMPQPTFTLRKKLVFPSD
Assay: inhibitors of purified CASP8 protease – biochemical, Z-IETD-R110 fluorescence, cherry-picked samples, selectivity assay for caspase-6 inhibitor project, dose response (AID 743294)
Settings: purified caspase-8, Z-IETD-R110 cleavage fluorescence; series mostly up to 35 µM
Results with a measured potency or affinity are listed apart. Active and inactive are the calls of the source.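 The calls were made as follows: active = compounds lowering fluorescence whose fitted half-maximal dose is at most twice the top valid dose; inconclusive = flat fit between -70% and -30%, or poor curve fit; inactive = the rest.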
OBSERVABLE: outcome

| COMPOUND | ASSAY SYSTEM | OBSERVABLE | VALUE OBSERVED |
| --- | --- | --- | --- |
| Cc1[nH]nc(S(=O)CC(=O)O)c1[N+](=O)[O-] (centres undefined) | Caspase-8 (Homo sapiens) (UniProt Q14790) | outcome | inactive |
| C/C(CC(=O)N1CCCC1)=N\NC(=O)c1cc2ccccc2cc1O | Caspase-8 (Homo sapiens) (UniProt Q14790) | outcome | inactive |
| CCCCNC(=O)c1nc(C2CCNCC2)oc1-c1cccc(C(F)(F)F)c1 | Caspase-8 (Homo sapiens) (UniProt Q14790) | outcome | inactive |
| O=C(Nc1ccc2nc3n(c(=O)c2c1)CCCCC3)c1c(F)ccc([N+](=O)[O-])c1F | Caspase-8 (Homo sapiens) (UniProt Q14790) | outcome | inactive |
| O=c1c(CO)cc(CO)cc(CO)c1O | Caspase-8 (Homo sapiens) (UniProt Q14790) | outcome | inactive |
| O=P(c1ccccc1)(c1ccccc1)c1cc(S(=O)(=O)O)ccc1O | Caspase-8 (Homo sapiens) (UniProt Q14790) | outcome | inactive |
| CCCSC1=N/C(=C\c2ccc([N+](=O)[O-])o2)C(=O)S1 | Caspase-8 (Homo sapiens) (UniProt Q14790) | outcome | inactive |
| COc1cc(NC(C)CCCNC(C)C)c2ncccc2c1OC (centres undefined) | Caspase-8 (Homo sapiens) (UniProt Q14790) | outcome | inactive |
| O=C(O)/C(=C\c1ccc(Cl)c([N+](=O)[O-])c1)c1ccc(S(=O)(=O)N2CCCC2)s1 | Caspase-8 (Homo sapiens) (UniProt Q14790) | outcome | inactive |
| Cc1ccc(S(=O)(=O)Nc2csc(C)c2C(=O)O)cc1 | Caspase-8 (Homo sapiens) (UniProt Q14790) | outcome | inactive |
| O=C(C[C@@H]1C[C@H]2c3cc(NC(=O)NC4CCCCC4)ccc3O[C@H]2[C@H](CO)O1)NCc1ccccn1 | Caspase-8 (Homo sapiens) (UniProt Q14790) | outcome | inactive |
| COc1cc(NCCCCC(C)N)c2nccc(C)c2c1 (centres undefined) | Caspase-8 (Homo sapiens) (UniProt Q14790) | outcome | inactive |
| [O-][n+]1onc2c1CCc1c-2nn(-c2ccccc2Cl)[n+]1[O-] | Caspase-8 (Homo sapiens) (UniProt Q14790) | outcome | inactive |
| Cn1cnnc1SCC(=O)Nc1ncc([N+](=O)[O-])s1 | Caspase-8 (Homo sapiens) (UniProt Q14790) | outcome | inactive |
| Nc1c(O)cccc1C(=O)O | Caspase-8 (Homo sapiens) (UniProt Q14790) | outcome | inactive |
| COc1ccc(C(=O)OCC(=O)Nc2ncc([N+](=O)[O-])s2)cc1OC | Caspase-8 (Homo sapiens) (UniProt Q14790) | outcome | inactive |
| O=C(CCO)c1ccc(O)cc1 | Caspase-8 (Homo sapiens) (UniProt Q14790) | outcome | inactive |
| COc1ccc(NS(=O)(=O)c2ccc3c(c2)[C@H]2C=CC[C@H]2[C@@H](c2ccc(C(=O)O)cc2)N3)cc1 | Caspase-8 (Homo sapiens) (UniProt Q14790) | outcome | inactive |
| Cc1cc(C=O)c(C)n1-c1ccc(Cl)c(C(=O)O)c1 | Caspase-8 (Homo sapiens) (UniProt Q14790) | outcome | inactive |
| O=C(Nc1ccc(S(=O)(=O)Nc2cnc3ccccc3n2)cc1)c1ccc(Cl)c([N+](=O)[O-])c1 | Caspase-8 (Homo sapiens) (UniProt Q14790) | outcome | inactive |
| CO[C@H]1CN(C)C(=O)c2cc(NC(C)=O)ccc2OC[C@@H](C)N(C(=O)CC2CC2)C[C@H]1C | Caspase-8 (Homo sapiens) (UniProt Q14790) | outcome | inactive |
| Nc1ccc(Nc2ccccc2)c(S(=O)(=O)O)c1 | Caspase-8 (Homo sapiens) (UniProt Q14790) | outcome | inactive |
| COCCn1c2nc(=O)n(-c3ccccc3)c(=O)c-2nc2ccccc21 | Caspase-8 (Homo sapiens) (UniProt Q14790) | outcome | inactive |
| CCOC(=O)[C@H](Cc1c[nH]c2ccccc12)NC(=O)CN=[N+]=[N-] | Caspase-8 (Homo sapiens) (UniProt Q14790) | outcome | inactive |

The reported numbers originate from PubChem BioAssay AID743294.
